Just for reference, patent US9233978B2 is where these values come from.

Reported Human Microsomal Clearance values are given for each entry in this list.
Assay: Human microsomal metabolic stability
Type: in vitro ADME
Conditions: human microsomes 0.5 mg/mL, 1 μM test compound, NADPH, 37° C., pH 7.4, 0-30 minutes
Express the result in L/h/kg but write the number alone.

Record excerpt, results attached:
# compound, units-label, obs-value
rows = [
    ("CCOC(=O)C1=C(CN2CCN3C(=O)N(CCOCC(=O)O)CC3C2)NC(c2nccs2)=N[C@H]1c1cccc(F)c1Cl (some centres unmarked) [Example 67]", "L/h/kg", 0.282),
    ("CCOC(=O)C1=C(CN2CCN3C(=O)N(CC4CC(C(=O)O)C4)C[C@@H]3C2)NC(c2nccs2)=N[C@H]1c1cccc(F)c1Cl (some centres unmarked) [Example 81]", "L/h/kg", 0.006),
    ("CCOC(=O)C1=C(CN2CCN3C(=O)N(CC(OC)C(=O)O)C[C@@H]3C2)NC(c2nccs2)=N[C@H]1c1cccc(F)c1Cl (some centres unmarked) [Example 78]", "L/h/kg", 0.402),
    ("COC(=O)C1=C(CN2CCN3C(=O)N([C@H]4CCC[C@H]4C(=O)O)C[C@@H]3C2)NC(c2nccs2)=N[C@H]1c1ccc(F)cc1Cl [Example 51]", "L/h/kg", 0.12),
    ("COC(=O)C1=C(CN2CCN3C(=O)N(CC4(C(=O)O)CC4)C[C@@H]3C2)NC(c2nccs2)=N[C@H]1c1ccc(F)cc1Cl [Example 35]", "L/h/kg", 0.018),
    ("COC(=O)C1=C(CN2CCN3C(=O)N(C4CCC(C(=O)O)CC4)C[C@@H]3C2)NC(c2nccs2)=N[C@H]1c1ccc(F)cc1Cl (some centres unmarked) [Example 72]", "L/h/kg", 0.312),
]

Exam item: Report measured Human Microsomal Clearance; entry is CCOC(=O)C1=C(CN2CCN3C(=O)N(CC(C)C)C[C@@H]3[C@H]2C(=O)O)NC(c2nccs2)=N[C@H]1c1cccc(F)c1Cl (single isomer, unassigned) [Example 101B]
Marked response: 0.366

Exam item: Report measured Human Microsomal Clearance; entry is COC(=O)C1=C(CN2CCN3C(=O)N(CC(C)(C)C(=O)O)C[C@@H]3C2)NC(c2nccs2)=N[C@H]1c1cccc(F)c1C [Example 44]
Marked response: 0.102

Exam item: Report measured Human Microsomal Clearance; entry is CCOC(=O)C1=C(CN2CCN3C(=O)N(CCCC(=O)O)C[C@@H]3C2)NC(c2nccs2)=N[C@H]1c1cccc(F)c1Cl [Example 53]
Marked response: 0.306

Exam item: Report measured Human Microsomal Clearance; entry is CCOC(=O)C1=C(CN2CCN3C(=O)N(C(C)(C)C)C[C@@H]3[C@H]2C(=O)O)NC(c2nccs2)=N[C@H]1c1cccc(F)c1Cl (single isomer, unassigned) [Example 87B]
Marked response: 0.3

Exam item: Report measured Human Microsomal Clearance; entry is COC(=O)C1=C(CN2CCN3C(=O)N(CCC(C)(C)C(=O)O)C[C@@H]3C2)NC(c2nccs2)=N[C@H]1c1ccc(F)cc1Cl [Example 54]
Marked response: 0.276

Exam item: Report measured Human Microsomal Clearance; entry is COC(=O)C1=C(CN2CCN3C(=O)N(CC(C)(C)C(=O)O)C[C@@H]3C2)NC(c2nccs2)=N[C@H]1c1cccc(F)c1Cl [Example 41]
Marked response: 0.12

Exam item: Report measured Human Microsomal Clearance; entry is CCOC(=O)C1=C(CN2CCN3C(=O)N(c4ccccc4C(=O)O)C[C@@H]3C2)NC(c2nccs2)=N[C@H]1c1cccc(F)c1Cl [Example 28]
Marked response: 0.264

Exam item: Report measured Human Microsomal Clearance; entry is CCOC(=O)C1=C(CN2CCN3C(=O)N(C(C)C)C[C@@H]3[C@H]2C(=O)O)NC(c2nccs2)=N[C@H]1c1cccc(F)c1Cl (single isomer, unassigned) [Example 84B]
Marked response: 0.216

Exam item: Report measured Human Microsomal Clearance; entry is COC(=O)C1=C(CN2CCN3C(=O)N(C4CC4)CC3(CC(=O)O)C2)NC(c2nccs2)=N[C@H]1c1ccc(F)cc1Cl (some centres unmarked) [Example 30]
Marked response: 0.102

Exam item: Report measured Human Microsomal Clearance; entry is CCOC(=O)C1=C(CN2CCN3C(=O)N([C@@H]4CCCC4C(=O)O)C[C@@H]3C2)NC(c2nccs2)=N[C@H]1c1cccc(F)c1Cl (stereo in doubt) [Example 50]
Marked response: 0.216

Exam item: Report measured Human Microsomal Clearance; entry is CCOC(=O)C1=C(CN2CCN3C(=O)N(C4CC4)C[C@H]3[C@@H]2C(=O)O)NC(c2nccs2)=N[C@H]1c1cccc(F)c1Cl (single isomer, unassigned) [Example 82A]
Marked response: 0.102

Exam item: Report measured Human Microsomal Clearance; entry is CCOC(=O)C1=C(CN2CCN3C(=O)N(CC(C)C(=O)O)C[C@@H]3C2)NC(c2nccs2)=N[C@H]1c1cccc(F)c1Cl (some centres unmarked) [Example 21]
Marked response: 0.162

Exam item: Report measured Human Microsomal Clearance; entry is COC(=O)C1=C(CN2CCN3C(=O)N(C4CCC(C(=O)O)CC4)C[C@@H]3C2)NC(c2nccs2)=N[C@H]1c1ccc(F)cc1Cl (some centres unmarked) [Example 73]
Marked response: 0.486

Exam item: Report measured Human Microsomal Clearance; entry is COC(=O)C1=C(CN2CCN3C(=O)N(C(C)(C)CC(=O)O)C[C@@H]3C2)NC(c2nccs2)=N[C@H]1c1ccc(F)c(F)c1C [Example 37]
Marked response: 0.15

Exam item: Report measured Human Microsomal Clearance; entry is CCOC(=O)C1=C(CN2CCN3C(=O)OC[C@@H]3[C@H]2C(=O)O)NC(c2nccs2)=N[C@H]1c1cccc(F)c1Cl (single isomer, unassigned) [Example 102B]
Marked response: 0.372

Exam item: Report measured Human Microsomal Clearance; entry is COC(=O)C1=C(CN2CCN3C(=O)N(c4ccc(C(=O)O)cc4)C[C@@H]3C2)NC(c2nccs2)=N[C@H]1c1ccc(F)cc1Cl [Example 25]
Marked response: 0.024

Exam item: Report measured Human Microsomal Clearance; entry is CCOC(=O)C1=C(CN2CCN3C(=O)CC[C@@H]3[C@H]2C(=O)O)NC(c2nccs2)=N[C@H]1c1cccc(F)c1Cl (racemic) [Example 99]
Marked response: 0.366

---

Reported Selectivity index (CC50/EC50) values are given for each entry in this list.
Tested on: HepDE19 cells
Assay: Cytotoxicity in HepDE19 cells (CCK-8) and selectivity index
Assay type: cell-based
Conditions: CC50 (HepDE19) value / EC50 (HepG2.2.15) value
In your answer, state the number alone without any accompanying words.

Record excerpt, results attached:
# molecule, tested-system, obs-value
data = [
    ("CCOC(=O)C1=C(CN2CCN3C(=O)NC[C@@H]3C2)NC(c2nccs2)=N[C@H]1c1ccc(F)cc1Br", "HepDE19 cells", 13016),
    ("COC(=O)C1=C(CN2CCN3C(=O)N(CC4(C(=O)O)CC4)C[C@@H]3C2)NC(c2nccs2)=N[C@H]1c1ccc(F)c(F)c1C", "HepDE19 cells", 21276),
    ("COC(=O)C1=C(CN2CCN3C(=O)NCC3(C(=O)OC)C2)NC(c2nccs2)=N[C@H]1c1ccc(F)cc1Cl (stereo partly drawn)", "HepDE19 cells", 10714),
    ("CCOC(=O)C1=C(CN2CCN3C(=O)N(CCO)CC3C2)NC(c2nccs2)=N[C@H]1c1cccc(F)c1Cl (stereo partly drawn)", "HepDE19 cells", 12600),
]

Exam item: Report measured Selectivity index (CC50/EC50); entry is CCOC(=O)C1=C(CN2CCN3C(=O)N(C(C)(C)CC(=O)O)C[C@@H]3C2)NC(c2nccs2)=N[C@H]1c1cccc(F)c1Cl
Marked response: 10655

---

Tested on: CYP3A4
Assay: Cytochrome P450 induction screening assay, mRNA induction in human cryopreserved hepatocytes
Type: in vitro ADME
Conditions: CYP3A4 mRNA relative induction, 24 hours, test compound up to 10 μM
Reported % of Positive control (10 μM Rifampicin) values are given for each entry in this list.
Express the result in % but write the number alone.

Exam item: State the measured % of Positive control (10 μM Rifampicin) (CYP3A4) of CCOC(=O)C1=C(CN2CCN3C(=O)N(CC(C)C(=O)O)C[C@@H]3C2)NC(c2nccs2)=N[C@H]1c1cccc(F)c1Cl (stereo partly drawn)
Marked response: 2.4

Exam item: State the measured % of Positive control (10 μM Rifampicin) (CYP3A4) of CCOC(=O)C1=C(CN2CCN3C(=O)N(C)C[C@H]3[C@@H]2C(=O)O)NC(c2nccs2)=N[C@H]1c1cccc(F)c1Cl (single isomer, unassigned) [Example 91B]
Marked response: 1.7

Exam item: State the measured % of Positive control (10 μM Rifampicin) (CYP3A4) of COC(=O)C1=C(CN2CCN3C(=O)N(C(C)(C)C)C[C@@H]3[C@H]2C(=O)O)NC(c2nccs2)=N[C@H]1c1ccc(F)cc1Cl (single isomer, unassigned) [Example 86B]
Marked response: 11
